Test system: CEM cells HIV-1 protection, formazan growth assay
Assay: NCI AIDS Antiviral Assay
Conditions: measured here: growth of uninfected CEM cells
observationType: pIC50
# log scale: pIC50 equals minus log10 of the concentration in mol/L

Could you please provide reported pIC50 for CC(=O)c1cccc(NCn2nnc3ccccc32)c1 ? Thanks! 4.02

Could you please provide reported pIC50 for CCOC(=O)c1cc2c([nH]1)c(O)cc1c2ccn1Cc1ccccc1 ? Thanks! 4.53

Could you please provide reported pIC50 for COC(=O)CCCC=C(c1cc(Cl)c(OC)c(C(=O)OC)c1)c1cc(Cl)c(OC)c(C(=O)OC)c1 ? Thanks! 4.67

Could you please provide reported pIC50 for CC(=O)OCc1ccc2c(c1)C(O)NC(=O)O2 (configuration not stated) ? Thanks! 3.98

---

Tested on: CEM cells HIV-1 protection, formazan growth assay
Experiment: NCI AIDS Antiviral Assay
Details: measured here: growth of uninfected CEM cells
Where a SMILES comes first, the peptide text is derived from it. The star is where a group is joined. Cbz = O=C(OCc1ccccc1)*; OBn = c1ccc(CO*)cc1
observationType: IC50

Could you please provide reported IC50 for Cc1ccc(C)n1-n1c(-c2ccccc2)n[nH]c1=O ? Thanks! 89.1 µM

Could you please provide reported IC50 for O/N=C1\C(=C\c2ccc3c(c2)OCCO3)CCCC1C(NO)c1ccc2c(c1)OCCO2 (stereo unspecified) ? Thanks! > 16.6 µM

Could you please provide reported IC50 for Cc1cccc(-n2nc3c(=O)n(C)c(=O)n(C)c3nc2=O)c1 ? Thanks! > 200 µM

Could you please provide reported IC50 for N#C/C(=C\c1cccc(Br)c1)C(=O)c1ccccc1 ? Thanks! 50.1 µM

Could you please provide reported IC50 for CCCCCCCCCCCCC1N=C(N)N2CCCC2=C1C(=O)OC (stereo unspecified) ? Thanks! 4.9 µM

Could you please provide reported IC50 for C=C(CCOC)CCC1CCCCC(=C)[C@H]1OC(C)=O (stereo partly specified) ? Thanks! 107 µM

Could you please provide reported IC50 for COc1ccc2c(c1)CCc1c-2n(CCN2CCCCC2)c2ccc(OC)cc12 ? Thanks! > 100 µM

Could you please provide reported IC50 for COC(=O)C(Cc1ccc(O)cc1)NC(=O)C(CC(=O)OCc1ccccc1)NC(=O)OCc1ccccc1 (stereo unspecified) (Cbz-Asp(OBn)-Tyr-OMe; configuration not given here) ? Thanks! 30.9 µM

Could you please provide reported IC50 for O=C(CCCn1ccnc1[N+](=O)[O-])NCCn1cncc1[N+](=O)[O-] ? Thanks! > 200 µM

Could you please provide reported IC50 for CS(=O)(=O)c1cnnc2ccccc12 ? Thanks! > 513 µM

Could you please provide reported IC50 for Cc1cccc(C)c1NC(=O)CCc1nc(=S)[nH][nH]1 ? Thanks! > 468 µM

Could you please provide reported IC50 for O=[N+]([O-])c1ccc(NN=C2CN3CCN(C2)c2ccccc23)c([N+](=O)[O-])c1 ? Thanks! 162 µM

Could you please provide reported IC50 for NC(=O)c1ccc[n+](C2=C([O-])c3ccccc3C(=O)/C2=N\S(=O)(=O)c2ccccc2)c1 ? Thanks! 11.2 µM

Could you please provide reported IC50 for O=C1CCC(N2C(=O)C3C4C=CC(CC4)C3C2=O)C(=O)N1 (stereo unspecified) ? Thanks! > 871 µM

Could you please provide reported IC50 for N#CCc1nc(-c2ccccc2)n[nH]1 ? Thanks! > 200 µM

Could you please provide reported IC50 for CC1=Nn2c(nnc2-c2cccc(N)c2)NC(C)(C)C1 ? Thanks! > 468 µM

Could you please provide reported IC50 for CCOC(=O)CN1C(=O)C(=O)N(c2ccc(OC)c3ccccc23)C1=O ? Thanks! > 200 µM

Could you please provide reported IC50 for O=C(Cl)c1ccc([As](=O)(O)O)cc1 ? Thanks! > 200 µM

Could you please provide reported IC50 for CC(C)(C)OC(=O)NC(Cc1ccc(OCc2ccccc2)cn1)C(N)=O (stereo unspecified) ? Thanks! > 100 µM

Could you please provide reported IC50 for Cc1c2c(cn1C)NC(=O)CN=C2c1ccccc1 ? Thanks! > 200 µM

Could you please provide reported IC50 for N#Cc1c2c(c(Nc3ccc(F)cc3)n3c1nc1ccccc13)CCCC2 ? Thanks! 81.3 µM

Could you please provide reported IC50 for c1cnc2nc3c4ccccc4c4ccccc4c3nc2c1 ? Thanks! > 35.5 µM

Could you please provide reported IC50 for CCCCN(CCCC)CCCCNc1c(C)cnc2cc(Cl)ccc12 ? Thanks! 9.33 µM

Could you please provide reported IC50 for CNNC1=NS(=O)(=O)c2cc(C(=O)OC)c(Cl)cc2S1 ? Thanks! > 200 µM

Could you please provide reported IC50 for COc1cc2cc3c4c(cc(OC)c(OC)c4c2cc1OC)CCN3C(=O)CCCC(=O)O ? Thanks! 110 µM

Could you please provide reported IC50 for C/C1=C/C(=O)O[C@@H]2C[C@@H](CC[C@H](C)/C=C\C=C\CC1)O[C@@](O)([C@@H]1CSC(=O)N1)C2 ? Thanks! 0.363 µM

Could you please provide reported IC50 for COc1ccc(C(C)c2cc3c(cc2OC)OCO3)cc1 (stereo unspecified) ? Thanks! 0.427 µM

Could you please provide reported IC50 for O=C(O)CCC(=O)NCCNC(=O)CC(=O)O ? Thanks! > 1000 µM

Could you please provide reported IC50 for C=CCn1c(N)c(C#N)c(C#N)c1-c1ccccc1 ? Thanks! > 200 µM

Could you please provide reported IC50 for CCc1ccc(/C(C#N)=C/c2ccc(N(C)CCC#N)cc2)cc1 ? Thanks! 3.55 µM

Could you please provide reported IC50 for CC(C)C1OC(=O)/C=C/C=C/C=C/C=C/C=C/CC(O)CC(O)CC(O)CC(O)CC(O)CC(O)CC(O)CC(O)/C=C/C1C (stereo unspecified) ? Thanks! > 200 µM

Could you please provide reported IC50 for CCC1CN2CCc3c([nH]c4ccccc34)C2C[C@@H]1CC(=O)N(C)C (stereo partly specified) ? Thanks! > 148 µM

Could you please provide reported IC50 for O=C(CCCCC1CCSS1)N(C(=O)NC1CCCCC1)C1CCCCC1 (stereo unspecified) ? Thanks! 10.5 µM

Could you please provide reported IC50 for N#C/C=C/c1ccc2ccccc2c1 ? Thanks! > 40.7 µM

Could you please provide reported IC50 for O=C(O)c1n[nH][nH]c1=S ? Thanks! > 200 µM

Could you please provide reported IC50 for CCOC(=O)[C@H]1Nc2ccc(Cl)cc2[C@H]2CCC[C@@H]12 ? Thanks! > 67.6 µM

Could you please provide reported IC50 for NC(=O)C(=O)CC(=O)c1ccccc1NC1=CC(=O)C(=O)c2ccccc21 ? Thanks! > 20 µM

Could you please provide reported IC50 for Cc1cc[n+](CC(=O)CC([O-])(C(F)(F)F)C(F)(F)F)cc1 ? Thanks! > 200 µM

Could you please provide reported IC50 for COc1ccc(OC)c2c3c(ccc12)C1(CCc2c(C)cccc21)OC3=O (stereo unspecified) ? Thanks! 8.13 µM

Could you please provide reported IC50 for CC(C)C1/C(=N/O)CC(c2ccccc2)N(N=O)C1c1ccccc1 (stereo unspecified) ? Thanks! 66.1 µM

Could you please provide reported IC50 for CC(=O)OC1CCC2(COS(=O)(=O)c3ccc(C)cc3)C(=CCC3C2CCC2(C)C(C(C)CCCC(C)C)CCC32)C1 (stereo unspecified) ? Thanks! > 200 µM
